# Assay summary: Test 5: concentration of the test compounds in tumor
# Assay type: in vivo
# Study conditions: mouse, po, 25 mg/kg, 25 mg/kg po, 2 hr, animal 1, read-out: Concentration in tumor, animal 1
Experimental readout: concentration at 2 hr

Request: concentration at 2 hr for CN1CCN(C(=O)c2c(C(F)(F)F)oc3c2C(=O)c2ccccc2C3=O)CC1 ?
Result: 498 ng/mL

----------
# Assay summary: Test 4: concentration of the test compounds in plasma
# Type: in vivo
# Study conditions: mouse, po, 25 mg/kg, 25 mg/kg po, 2 hr, animal 2, read-out: Concentration in plasma, animal 2
Experimental readout: concentration at 2 hr

Request: What value of concentration at 2 hr has been recorded for this entry: CN1CCN(C(=O)c2c(C(F)(F)F)oc3c2C(=O)c2ccccc2C3=O)CC1
Result: 473 ng/mL
